Value source: PubChem BioAssay AID1159580

# Assay details: chemical genetic growth profiling, strain panel (AID 1159580);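 also: tested at 20 µM; growth read once vehicle control cultures reached saturation at 30 °C; 1 = growth at the plate median or of vehicle wells; lower values mean less growth of the strain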
# Assay conditions: S. cerevisiae deletion strains, growth OD, locus YDL005C, strain med2, stronger effect = lower value
Screen size: about 5,500 compounds; about 2,000 (36%) were called active. Not shown: some 18% with an inconclusive outcome. The list shows a part of the results.
Property name: normalized growth

INSERT INTO measurements (compound, observed_result) VALUES
  ('COc1ccc2c(c1)OC[C@@H](Cc1ccc(OC)c(OC)c1)[C@@H]2O', 0.975),
  ('O=c1ccc2ccccc2o1', 0.976),
  ('CC(=O)OC1CC23CC24CCC(OC2OCC(O)C(O)C2O)C(C)(C)C4CCC3C2(C)CC3OC4(CC(C)C3C12C)OC(O)C1(C)OC41 (stereo unspecified)', 1.02),
  ('CCCCOc1ccc(OCCCN2CCOCC2)cc1', 1),
  ('CCc1ccc(CCOc2ccc(CC3SC(=O)NC3=O)cc2)nc1 (stereo unspecified)', 1),
  ('O=C(O)c1cc(=O)c2ccc(Cl)cc2[nH]1', 1.02),
  ('COC(=O)C1=COC(OC2OC(CO)C(O)C(O)C2O)C2C(C)CC(=O)C12O (stereo unspecified)', 0.986),
  ('N=c1nc(N2CCCCC2)cc(N)n1O', 0.997),
  ('CC(C(=O)O)c1ccc2c(c1)[nH]c1ccc(Cl)cc12 (stereo unspecified)', 0.975),
  ('COc1cc(O)c(C(=O)c2ccccc2)cc1O', 1.01),
  ('OC(CCN1CCCCC1)(c1ccccc1)c1ccccc1', 1.01),
  ('COc1ccc2c(c1)OC[C@@H](Cc1ccc(OC)c(OC)c1)[C@H]2O', 0.999),
  ('CN1C2CC3C[C@H]1C(O3)C2O (stereo partly specified)', 1.02),
  ('COc1ccc2cc1Oc1ccc(cc1)C[C@H]1c3cc(c(OC)cc3CCN1C)Oc1c(OC)c(OC)cc3c1[C@H](C2)N(C)CC3', 1),
  ('NC(N)=NOCC[C@H](N)C(=O)O', 1.01),
  ('c1ccc(CN(CC2=NCCN2)c2ccccc2)cc1', 1.01),
  ('CO[C@H]1C[C@H](O[C@H]2[C@H](C)[C@@H](OC3O[C@H](C)C[C@H](N(C)C)[C@H]3O)[C@@H](C)C[C@]3(CO3)C(=O)[C@H](C)[C@@H](O)[C@@H](C)[C@@H](C)OC(=O)[C@@H]2C)O[C@@H](C)[C@@H]1O (stereo partly specified)', 1.02),
  ('O=C1C[C@@H](c2ccc(O)cc2)Oc2cc(O)cc(O)c21', 0.978),
  ('O=C(O)c1ccccc1OP(=O)(O)O', 1),
  ('CN1CCCC(n2nc(Cc3ccc(Cl)cc3)c3ccccc3c2=O)CC1 (stereo unspecified)', 0.999),
  ('O=C(/C=C/c1ccccc1)O[C@H]1C[C@@H](O)[C@]2(O)C=CO[C@@H](O[C@@H]3O[C@H](CO)[C@@H](O)[C@H](O)[C@H]3O)[C@H]12', 1.02);

* * *

# Assay details: chemical genetic growth profiling, strain panel (AID 1159580);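 also: tested at 20 µM; growth read once vehicle control cultures reached saturation at 30 °C; 1 = growth at the plate median or of vehicle wells; lower values mean less growth of the strain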
# Assay conditions: S. cerevisiae deletion strains, growth OD, locus YPL241C, strain CIN2, stronger effect = lower value
In all, about 5,500 compounds went through this assay and about 2,000 (36%) were called active. Another 18% or so got no clear call; they are omitted. The list shows a part of the results.
Decision: normalized growth beneath 1 gives 1.0; normalized growth meeting or exceeding 1 gives 0.0.

INSERT INTO assay_data (smiles_code, cat) VALUES
  ('Cc1nn(-c2ccccc2)nc1C(=O)NC(=O)N1CCCC1', 1.0),
  ('COC(=O)c1c(C)[nH]c(C)c1C(C)=O', 0.0),
  ('COc1ccccc1C1CCN(Cc2ccc3ccccc3c2)CC1', 1.0);

* * *

// values below are reported normalized growth
# Assay details: chemical genetic growth profiling, strain panel (AID 1159580);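 also: tested at 20 µM; growth read once vehicle control cultures reached saturation at 30 °C; 1 = growth at the plate median or of vehicle wells; lower values mean less growth of the strain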
# Assay conditions: S. cerevisiae deletion strains, growth OD, locus YCL061C, strain MRC1, stronger effect = lower value
Among all 5,500 compounds or so, about 2,000 (36%) were called active. Inconclusive results (about 18%) are left out. This is one part of the list.
Property name: normalized growth

INSERT INTO results (compound, property_name, observed_result) VALUES
  ('CCCCCC(C)N (stereo unspecified)', 'normalized growth', '1.02 (inactive)'),
  ('COc1cc2c(cc1OC)C(=O)C(CC1CCN(Cc3ccccc3)CC1)C2 (stereo unspecified)', 'normalized growth', '0.967 (inactive)'),
  ('CC(=O)/C(=C\Nc1ncccn1)S(=O)(=O)c1ccc(Cl)cc1', 'normalized growth', '1 (inactive)'),
  ('CN(C)/C=C(\C#N)C(=O)Nc1ccc(F)c(Cl)c1', 'normalized growth', '0.978 (inactive)'),
  ('C=CCc1ccc2c(c1)OCO2', 'normalized growth', '1.06 (inactive)'),
  ('COc1cccc([C@]2(O)CCCC[C@H]2CN(C)C)c1', 'normalized growth', '0.987 (inactive)'),
  ('CCc1ccc(CCOc2ccc(CC3SC(=O)NC3=O)cc2)nc1 (stereo unspecified)', 'normalized growth', '1.01 (inactive)'),
  ('Cc1ccc2cc(C)c(C)cc2c1', 'normalized growth', '0.992 (inactive)'),
  ('COC(=O)C1[C@H]2C[C@H]3c4[nH]c5ccccc5c4CCN3C[C@@H]2CC[C@@H]1O (stereo partly specified)', 'normalized growth', '0.976 (inactive)'),
  ('NC(N)=NOCC[C@H](N)C(=O)O', 'normalized growth', '1.01 (inactive)'),
  ('O=[N+]([O-])O[C@H]1CO[C@H]2[C@@H]1OC[C@H]2O[N+](=O)[O-]', 'normalized growth', '0.985 (inactive)'),
  ('CC(=O)O[C@H]1C(=O)[C@@]2(C)C([C@H](OC(=O)c3ccccc3)[C@]3(O)C[C@H](OC(=O)[C@H](O)[C@@H](NC(=O)c4ccccc4)c4ccccc4)C(C)=C1C3(C)C)[C@]1(OC(C)=O)CO[C@@H]1C[C@@H]2O (stereo partly specified)', 'normalized growth', '1.01 (inactive)'),
  ('CC(=O)OCC(CCn1cnc2cnc(N)nc21)COC(C)=O', 'normalized growth', '0.991 (inactive)'),
  ('O=C(Cc1ccccc1)NO', 'normalized growth', '0.975 (inactive)'),
  ('CCC1(c2ccccc2)C(=O)NCNC1=O', 'normalized growth', '0.988 (inactive)'),
  ('N#Cc1c(Cl)c(Cl)c(Cl)c(C#N)c1Cl', 'normalized growth', '0.078 (active)'),
  ('COC(=O)[C@@H]1C(O)CC[C@H]2CN3CCc4c([nH]c5ccccc45)[C@@H]3C[C@@H]21 (stereo partly specified)', 'normalized growth', '1.01 (inactive)'),
  ('NC1=C(c2ccccc2)C(=O)NC1=O', 'normalized growth', '1.03 (inactive)'),
  ('C1CCc2nnnn2CC1', 'normalized growth', '0.998 (inactive)'),
  ('N=c1nc(N2CCCCC2)cc(N)n1O', 'normalized growth', '0.991 (inactive)'),
  ('O=c1ccc2cc(O)c(O)cc2o1', 'normalized growth', '1 (inactive)'),
  ('NC/C=C/C(=O)O', 'normalized growth', '0.987 (inactive)'),
  ('CCSC(=N)N', 'normalized growth', '1.01 (inactive)'),
  ('CC(SCc1ccccc1)C(=O)O (stereo unspecified)', 'normalized growth', '0.997 (inactive)'),
  ('CCCCOc1ccc(CC(=O)NO)cc1', 'normalized growth', '1.01 (inactive)'),
  ('Cc1c(N(C)C)c(=O)n(-c2ccccc2)n1C', 'normalized growth', '0.979 (inactive)');

* * *

# Assay details: chemical genetic growth profiling, strain panel (AID 1159580);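 also: tested at 20 µM; growth read once vehicle control cultures reached saturation at 30 °C; 1 = growth at the plate median or of vehicle wells; lower values mean less growth of the strain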
# Assay conditions: S. cerevisiae deletion strains, growth OD, locus YOR184W, strain ser1, stronger effect = lower value
The whole screen tested about 5,500 compounds, of which about 2,000 (36%) were called active. Another 18% or so got no clear call; they are omitted. This is one part of the list.
Property name: normalized growth

INSERT INTO measurements (compound, property_name, observed_result) VALUES
  ('CCCCOc1ccc(C(=O)CCN2CCCCC2)cc1', 'normalized growth', 0.161),
  ('Cc1c(N(C)C)c(=O)n(-c2ccccc2)n1C', 'normalized growth', 1.01),
  ('NC[C@@H]1O[C@H](O[C@@H]2[C@@H](CO)OC(O[C@@H]3[C@@H](O)[C@H](N)C[C@H](N)[C@H]3OC3O[C@H](CN)[C@@H](O)[C@H](O)[C@H]3N)[C@@H]2O)[C@H](N)[C@@H](O)[C@@H]1O (some centres undefined)', 'normalized growth', 1.03),
  ('OC(CCN1CCCCC1)(c1ccccc1)c1ccccc1', 'normalized growth', 1.02),
  ('CNC1(C)C2CCC(C2)C1(C)C (centres undefined)', 'normalized growth', 1.05),
  ('O=C(O)c1cc(=O)c2ccc(Cl)cc2[nH]1', 'normalized growth', 0.985),
  ('COc1ccc2cc1Oc1ccc(cc1)C[C@H]1c3cc(c(OC)cc3CCN1C)Oc1c(OC)c(OC)cc3c1[C@H](C2)N(C)CC3', 'normalized growth', 1.02),
  ('CC(=O)[C@H]1CCC2C3C[C@H](C)C4=CC(=O)CC[C@]4(C)C3[C@@H](O)C[C@@]21C (some centres undefined)', 'normalized growth', 0.962),
  ('CC(C(=O)O)c1ccc2c(c1)[nH]c1ccc(Cl)cc12 (centres undefined)', 'normalized growth', 0.986);
